Examples of binders with documented koff follow.
target: H5N1 A/Vietnam/1203/2004 hemagglutinin ectodomain, biotinylated HA0 (influenza A virus A/Vietnam/1203/2004 …); test: SPR
No end group written: not given here.

Binder	Unit string	koff
PPLYEDPLGVAGGMG (also: one Pro of the Pro-Pro template is D, which not given here, cyclic peptide, ring closure not given here) [cyclic peptide CP3]	s⁻¹	0.76
PGVSLYEDPLGVAGGMGVY (also: cyclic peptide, ring closure not given here) [cyclic peptide CP4]	s⁻¹	0.32
